Sourced from patent US20260062426A1

Target: CDK2 (Homo sapiens)
Construct: host or cells: HEK293
Assay: CDK2 HIBIT PQ (protein quantification), degradation
Type: cell-based
Conditions: PQ = Protein Quantification
So basically: is DC50 under 0.9 nM? Then Fulfilled. Not under? Then Not fulfilled.

Exercise: Problem: For the compound CC(C)Oc1c(-c2cn[nH]c2)ncn2nc(Nc3ccc(S(=O)(=O)c4cccc(C(C)N5CCC(c6ccc7c(N8CCC(=O)NC8=O)nn(C)c7c6)CC5)c4)cc3F)nc12 (single isomer, unassigned) [Compound 101] , is DC50 under 0.9 nM?
Key: Not fulfilled

Exercise: # strict comparison: is reported DC50 < 0.9 nM? input = CC(C)Oc1c(-c2cn[nH]c2)ncn2nc(Nc3ccc(S(=O)(=O)c4cccc(CN5C6CCC5CN(c5ccc7c(N8CCC(=O)NC8=O)nn(C)c7c5)C6)c4)cc3F)nc12 [Compound 46]
Key: Not fulfilled

Exercise: Strictly below 0.9 nM: is that where DC50 of CC(C)Oc1c(-c2cn[nH]c2)ncn2nc(Nc3ccc(S(=O)(=O)N(C)CCCN4CCC(c5cccc6c(N7CCC(=O)NC7=O)nn(C)c56)CC4)cc3F)nc12 [Compound 24] sits?
Key: Fulfilled

Exercise: Please indicate whether the reported DC50 of CC(C)Oc1c(-c2cn[nH]c2)ncn2nc(Nc3ccc(S(=O)(=O)N(C)CCCN4CCC(c5ccc6c(c5)n(C)c(=O)n6[C@H]5CCC(=O)NC5=O)CC4)cc3F)nc12 (racemic) [Compound 16] is strictly below 0.9 nM.
Key: Fulfilled

Exercise: Please indicate whether the reported DC50 of CC(C)Oc1c(-c2cn[nH]c2)ncn2nc(NC3CCN(S(=O)(=O)N(C)CCCN4CCC(c5cccc6c5n(C)c(=O)n6C5CCC(=O)NC5=O)CC4)CC3)nc12 (racemic) [Compound 19] is strictly below 0.9 nM.
Key: Fulfilled

Exercise: A record lists CC(C)Oc1c(-c2cn[nH]c2)ncn2nc(Nc3ccc(S(=O)(=O)N(C)CCCN4CCN(c5ccc6c(c5)n(C)c(=O)n6C5CCC(=O)NC5=O)C[C@H]4C)cc3F)nc12 (some centres unmarked) [Compound 63] . Is its DC50 below 0.9 nM?
Key: Fulfilled

Exercise: Below 0.9 nM on DC50? Entry Cc1cc(S(=O)(=O)N(C)CCCN2CCC(c3ccc4c(c3)n(C)c(=O)n4C3CCC(=O)NC3=O)CC2)cc(F)c1Nc1nc2c(OC(C)C)c(-c3cn[nH]c3)ncn2n1 (racemic) [Compound 57]
Key: Fulfilled

Exercise: Please let me know if CC(C)Oc1c(-c2cn[nH]c2)ncn2nc(Nc3ccc(S(=O)(=O)c4cccc(C[C@H]5C[C@@H](c6ccc7c(c6)CN([C@@H]6CCC(=O)NC6=O)C7=O)C5)c4)cc3F)nc12 (stereo in doubt) [Compound 79] shows DC50 below 0.9 nM.
Key: Not fulfilled

====

Target: CDK9 (Homo sapiens, UniProt P50750)
Construct: host or cells: HEK293
Sequence (P50750 whole entry): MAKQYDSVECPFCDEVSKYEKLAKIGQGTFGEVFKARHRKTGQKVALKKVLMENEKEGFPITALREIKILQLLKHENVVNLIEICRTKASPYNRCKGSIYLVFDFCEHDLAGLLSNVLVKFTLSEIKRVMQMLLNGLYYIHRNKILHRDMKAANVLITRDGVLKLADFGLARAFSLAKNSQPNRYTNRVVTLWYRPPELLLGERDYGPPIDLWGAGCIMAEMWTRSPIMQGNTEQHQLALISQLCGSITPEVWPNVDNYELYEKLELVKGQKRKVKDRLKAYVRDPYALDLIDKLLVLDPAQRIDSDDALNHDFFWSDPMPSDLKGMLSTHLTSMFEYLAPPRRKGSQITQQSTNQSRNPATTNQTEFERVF
Experiment: CDK9 HIBIT PQ (protein quantification), degradation
Assay type: cell-based
Conditions: PQ = Protein Quantification
observable: DC50 (µM)
Field: numeric (µM). Do not append units.

Exercise: Retrieve DC50 measured for CC(C)Oc1c(-c2cn[nH]c2)ncn2nc(Nc3ccc(S(=O)(=O)N4CCCC(CN5CCC(c6ccc7c(N8CCC(=O)NC8=O)nn(C)c7c6)C(C)C5)C4)cc3F)nc12 (stereo not shown) and print it.
Key: 0.0217

Exercise: Please report DC50 for the following compound: CC(C)Oc1c(-c2cn[nH]c2)ncn2nc(Nc3ccc(S(=O)(=O)N(C)CCCN4CCN(c5ccc6c(c5)n(C)c(=O)n6C5CCC(=O)NC5=O)C[C@H]4C)cc3F)nc12 (stereo partly shown)
Key: 0.00207

Exercise: Determine its reported DC50: CC(C)Oc1c(-c2cn[nH]c2)ncn2nc(Nc3ccc(S(=O)(=O)N4CCCC(CN5CCC(c6ccc7c(N8CCC(=O)NC8=O)nn(C)c7c6)CC5(C)C)C4)cc3F)nc12 (stereo not shown)
Key: 0.00587

Exercise: State its DC50 for this compound: CC(C)Oc1c(-c2cn[nH]c2)ncn2nc(Nc3ccc(S(=O)(=O)c4cccc(CN5CCN(c6ccc7c(N8CCC(=O)NC8=O)nn(C)c7c6)C(C(C)C)C5)c4)cc3F)nc12 (racemic)
Key: 0.307

====

Could you please report measured DC50 for the items listed next?
Molecular target: CDK2 (Homo sapiens)
Construct: host or cells: HEK293
Experiment: CDK2 HIBIT PQ (protein quantification), degradation
Format: cell-based
Settings: PQ = Protein Quantification
Quote the value and follow it with the unit of measurement.

Exercise: Give CDK2 (Homo sapiens) DC50 for the following molecule: Cc1c(S(=O)(=O)N(C)CCCN2CCC(c3ccc4c(c3)n(C)c(=O)n4C3CCC(=O)NC3=O)CC2)ccc(Nc2nc3c(OC(C)C)c(-c4cn[nH]c4)ncn3n2)c1F (racemic)
Key: 0.1 nM

Exercise: Lab note: record DC50 of "CC(C)Oc1c(-c2cn[nH]c2)ncn2nc(Nc3ccc(S(=O)(=O)c4cccc(CN5CCC(c6cccc7c(N8CCC(=O)NC8=O)nn(C)c67)CC5)c4)cc3F)nc12" tested on CDK2 (Homo sapiens).
Key: 3.8 nM

Exercise: Specify DC50 for CC(C)Oc1c(-c2cn[nH]c2)ncn2nc(Nc3ccc(S(=O)(=O)N(C)CCCN4CCC(c5ccc6c(c5)n(C)c(=O)n6C5CCC(=O)NC5=O)CC4)c4ccoc34)nc12 (racemic) , system CDK2 (Homo sapiens).
Key: 0.2 nM

Exercise: Report value only: DC50, CDK2 (Homo sapiens), "CC(C)Oc1c(-c2cn[nH]c2)ncn2nc(N[C@H]3CCN(S(=O)(=O)c4cccc(CN5CCN(c6ccc7c(N8CCC(=O)NC8=O)nn(C)c7c6)CC5(C)C)c4)C[C@H]3C)nc12"
Key: 2.8 nM

Exercise: Report DC50 from CDK2 (Homo sapiens) testing of CC(C)Oc1c(-c2cn[nH]c2)ncn2nc(Nc3ccc(S(=O)(=O)c4cccc(C[C@H]5C[C@H](c6ccc7c(c6)CN([C@H]6CCC(=O)NC6=O)C7=O)C5)c4)cc3F)nc12 (stereo in doubt)
Key: 23.4 nM

Exercise: State the measured DC50 (CDK2 (Homo sapiens)) of CC(C)Oc1c(-c2cn[nH]c2)ncn2nc(N[C@H]3CCN(S(=O)(=O)c4cccc(CN5CCN(c6ccc7c(N8CCC(=O)NC8=O)nn(C)c7c6)CC5C)c4)C[C@H]3C)nc12 (some centres unmarked)
Key: 2.4 nM

Exercise: Write down measured DC50 (CDK2 (Homo sapiens)) for this molecule. CC(C)Oc1c(-c2cn[nH]c2)ncn2nc(Nc3ccc(S(=O)(=O)N4CCCC(CN5CCC(c6ccc7c(N8CCC(=O)NC8=O)nn(C)c7c6)CC5(C)C)C4)cc3F)nc12 (centres unmarked)
Key: 0.7 nM

Exercise: Please tell me the measured DC50 for "CC(C)Oc1c(-c2cn[nH]c2)ncn2nc(Nc3ccc(S(=O)(=O)c4cccc(C[C@H]5C[C@@H](c6ccc7c(N8CCC(=O)NC8=O)nn(C)c7c6)C5)c4)cc3F)nc12" ; system: CDK2 (Homo sapiens).
Key: 14.3 nM

Exercise: Answer with DC50 of CCC1CN(c2ccc3c(N4CCC(=O)NC4=O)nn(C)c3c2)CCN1Cc1cccc(S(=O)(=O)N2CC[C@H](Nc3nc4c(OC(C)C)c(-c5cn[nH]c5)ncn4n3)[C@H](C)C2)c1 (some centres unmarked) measured for CDK2 (Homo sapiens).
Key: 2.8 nM

Exercise: Give DC50 for CC(C)Oc1c(-c2cn[nH]c2)ncn2nc(Nc3ccc(S(=O)(=O)c4cccc(CC5CC(c6ccc7c(c6)n(C)c(=O)n7[C@H]6CCC(=O)NC6=O)C5)c4)cc3F)nc12 (mixture of isomers) tested on CDK2 (Homo sapiens).
Key: 1.7 nM

Exercise: Give DC50 for CC(C)Oc1c(-c2cn[nH]c2)ncn2nc(Nc3ccc(S(=O)(=O)N4CCC5(CCN(C6CCN(c7ccc8c(c7)n(C)c(=O)n8C7CCC(=O)NC7=O)CC6)C5)C4)cc3F)nc12 (centres unmarked) tested on CDK2 (Homo sapiens).
Key: 2.9 nM

Exercise: Output reported DC50 of the molecule CC(C)Oc1c(-c2cn[nH]c2)ncn2nc(Nc3ccc(S(=O)(=O)c4cccc(OC5CN(C6CCN(c7ccc8c(c7)CN(C7CCC(=O)NC7=O)C8=O)CC6)C5)c4)cc3F)nc12 (racemic) on CDK2 (Homo sapiens).
Key: 1.1 nM

Exercise: Name the recorded DC50 of CC(C)Oc1c(-c2cn[nH]c2)ncn2nc(Nc3ccc(S(=O)(=O)c4cccc(CN5CCN(c6ccc7c(N8CCC(=O)NC8=O)nn(C)c7c6)C(C)C5)c4)cc3F)nc12 (racemic) , assay system CDK2 (Homo sapiens).
Key: 3.9 nM

Exercise: Quote CDK2 (Homo sapiens) DC50 for entry CC(C)Oc1c(-c2cn[nH]c2)ncn2nc(Nc3ccc(S(=O)(=O)N(C)CCCN4CCN(c5cccc6c5n(C)c(=O)n6C5CCC(=O)NC5=O)CC4)cc3F)nc12 (racemic) .
Key: 0.26 nM

Exercise: Find DC50 for CC(C)Oc1c(-c2cn[nH]c2)ncn2nc(N[C@H]3CCN(S(=O)(=O)N(C)CCCN4CCC(c5cccc6c5n(C)c(=O)n6C5CCC(=O)NC5=O)CC4)C[C@H]3C)nc12 (some centres unmarked) on CDK2 (Homo sapiens) and write it down.
Key: 1.07 nM

Exercise: Fetch value of DC50 on CDK2 (Homo sapiens) for "CC(C)Oc1c(-c2cn[nH]c2)ncn2nc(Nc3ccc(S(=O)(=O)c4cccc(CN5C6CC5CN(c5ccc7c(N8CCC(=O)NC8=O)nn(C)c7c5)C6)c4)cc3F)nc12" .
Key: 4.3 nM

Exercise: Provide DC50, recorded with CDK2 (Homo sapiens), of "CC(C)Oc1c(-c2cn[nH]c2)ncn2nc(Nc3ccc(S(=O)(=O)c4ccc(CN5CCC(c6ccc7c(c6)n(C)c(=O)n7[C@H]6CCC(=O)NC6=O)CC5)o4)cc3F)nc12"
Key: 0.8 nM
